MEASUREMENT TARGET: Programmed cell death protein 1/Programmed cell death 1 ligand 1 (Homo sapiens, UniProt Q15116+Q9NZQ7)
Sequence (Q15116 whole entry): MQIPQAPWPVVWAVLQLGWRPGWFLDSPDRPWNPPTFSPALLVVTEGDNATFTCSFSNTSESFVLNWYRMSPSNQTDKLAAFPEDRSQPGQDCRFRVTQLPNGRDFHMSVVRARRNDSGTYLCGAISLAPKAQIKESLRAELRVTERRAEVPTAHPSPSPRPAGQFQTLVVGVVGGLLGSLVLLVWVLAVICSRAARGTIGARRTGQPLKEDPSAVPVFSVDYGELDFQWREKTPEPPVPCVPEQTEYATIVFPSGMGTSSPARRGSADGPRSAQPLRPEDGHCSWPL
Sequence (Q9NZQ7 whole entry): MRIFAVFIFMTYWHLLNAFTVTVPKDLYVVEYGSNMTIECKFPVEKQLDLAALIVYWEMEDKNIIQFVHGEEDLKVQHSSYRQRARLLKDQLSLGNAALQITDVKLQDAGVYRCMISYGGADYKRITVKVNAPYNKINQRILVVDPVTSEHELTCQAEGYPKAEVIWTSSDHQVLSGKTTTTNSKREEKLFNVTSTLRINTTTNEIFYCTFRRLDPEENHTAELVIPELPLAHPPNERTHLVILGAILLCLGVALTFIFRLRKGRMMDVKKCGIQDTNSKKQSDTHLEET
ASSAY TEXT: Inhibition of PD-1/PD-L1 (unknown origin) protein-protein interaction by HTRF assay
RESULT TYPE: IC50

{"MOLECULE": "CC(O)[C@H](NC(=O)N[C@@H](CC(N)=O)C1NC([C@@H](N)CO)=NO1)C(=O)O (stereo partly specified)", "RESULT": "17 nM"}

====

ASSAY TEXT: Inhibition of human full length WDR5/RbBP5 (1 to 538 residues)/ASH2L (1 to 635 residues) expressed in Rosetta2 BL21 (DE3) pLysS incubated for 90 mins by SPA based histone methyltransferase assay
pIC50: −log10 of the molar value. *1 amine or outer side, *2 acyl side, *3 side chain or, on linkers, in order; H or OH if unused. Where a SMILES comes first, the peptide text is derived from it. Bridges are numbered along the chain shown (N, C = ends). [ ]: non-standard residue; d: D form. The star is where a group is joined. dαMeDab = C[C@](CCN[*:3])(N[*:1])C(=O)[*:2]; Arg(Me) = CNC(=N)NCCC[C@H](N)C(=O)O; d(αMeK) = C[C@@](N)(CCCCN)C(=O)O; dPhg = N[C@@H](C(=O)O)c1ccccc1; Isobutyryl = CC(C)C(=O)*; Abu = CC[C@H](N)C(=O)O
A collection of molecules and their measured pIC50

{"MOLECULE": "CC[C@@H]1NC(=O)[C@H](CCCNC(=N)N)NC(=O)[C@](C)(NC(=O)C(C)C)CCCCNC(=O)[C@@H](c2ccccc2)NC1=O (Isobutyryl-[d(αMeK)]R[Abu][dPhg]; lactam 1-C)", "pIC50": 9.05}
{"MOLECULE": "CC[C@@H]1NC(=O)[C@H](CCCNC(=N)NC)NC(=O)[C@](C)(NC(=O)C(C)C)CCNC(=O)[C@@H](c2ccccc2)NC1=O (Isobutyryl-[dαMeDab][Arg(Me)][Abu][dPhg]; lactam 1-C)", "pIC50": 9.05}
